melting point: recorded values
Dear colleague, please return just the value in °C, with no unit written.

> print(dat)
                                   compound  endpoint.result
1  O=Cc1cccc([N+](=O)[O-])c1 [m-nitrobenzaldehyde]               59
2  C(#Cc1ccccc1)c1ccccc1 [diphenylacetylene]               63
3  O=C=Nc1ccc(Cl)cc1Cl [2,4-dichlorophenyl isocyanate]               59
4            B1Oc2ccccc2O1 [catecholborane]               12
5  O=C(O)c1ccccc1Nc1cccc(C(F)(F)F)c1 [flufenamic acid]              125
6     CC(C)(C)Cl [2-chloro-2-methylpropane]              -25
7  CC(C)CCC[C@@H](C)[C@H]1CC[C@H]2[C@@H]3CC=C4C[C@@H](O)CC[C@]4(C)[C@H]3CC[C@]12C [(3beta)-Cholest-5-en-3-ol]              149
8              CCCC(=O)OCC [Ethyl butyrate]              -93

Please report the recorded melting point for O=CNc1ccccc1 [N-Phenylformamide] .
47

Please report the recorded melting point for CC[Si](CC)(CC)CC [tetraethylsilane] .
-82

Please report the recorded melting point for CC(C(=O)O)c1cccc(C(=O)c2ccccc2)c1 (stereo unspecified) [ketoprofen] .
94

----------
Label satisfied when melting point >= 100 °C; otherwise not satisfied.

> print(dat)
                                   compound       category
1                        OCc1ccc(Cl)c(Cl)c1  not satisfied
2  CN1CCC2=C(C1)C(c1ccccc1)c1ccccc12 (stereo unspecified)  not satisfied
3  C[C@@H]1O[C@H](O)[C@@H](O)[C@H](O)[C@H]1O      satisfied

Does `CC(=O)c1ccc(N2CCNCC2)cc1` have a reported melting point of at least 100 °C?
not satisfied

Does O=C(c1ccccc1)c1cc(Br)ccc1O [5-bromo-2-hydroxybenzophenone] have a reported melting point of at least 100 °C?
satisfied

----------
melting point: recorded values
Dear colleague, please return just the value in °C, with no unit written.

Study these solved cases before continuing.
> print(dat)
                                   compound  endpoint.result
1  Cc1ccc(C(C)C)cc1 [1-methyl-4-isopropylbenzene]              -68
2                      COc1cccc(OC)c1C(C)=O               70
3  COC(=O)n1nc(C)cc1C [methyl 3,5-dimethyl-1H-pyrazole-1-carboxylate]               52
4                   N[C@@H](CCC(=O)O)C(=O)O              224
5                         O=C(O)CCP(=O)(O)O              164
6    O=C(N[C@H](Cc1ccccc1)C(=O)O)OCc1ccccc1               86
7  COC(=O)CCCCCCCCC(=O)OC [dimethyl_sebacate]               30

The record that follows has no melting point shown yet.
Please report the recorded melting point for COC(=O)c1cc(OC)c(OC)c(OC)c1 [methyl 3,4,5-trimethoxybenzoate] .
85

All figures here come from the Bradley open melting point set (2014).
